test system: colorectal tissue transcripts; assay: SAGE of normal, adenoma and cancer colorectal tissue (transcript tag counts); design: species or system human; conditions: SAGE library CA1
CA1 (SAGE tag count) values by entry
The reply should be a number, written without any unit.

Below: 2 sequences and their reported CA1 (SAGE tag count).
* CCCAACGCGC (chemistry not fully specified) | 0
* CACCCCTGAT (chemistry not fully specified) | 13

Then there is this sequence:
Look up CA1 (SAGE tag count): GACGCGGCGC (chemistry not fully specified)
12

* * *

AD2 (SAGE tag count) values by entry
test system: colorectal tissue transcripts; assay: SAGE of normal, adenoma and cancer colorectal tissue (transcript tag counts); design: species or system human; conditions: SAGE library AD2
The reply should be a number, written without any unit.

Below: 3 sequences and their reported AD2 (SAGE tag count).
* AATCACAAAT (chemistry not fully specified) | 4
* GTGGCGGGAA (chemistry not fully specified) | 0
* GCCGTGGAGA (chemistry not fully specified) | 11

Look up AD2 (SAGE tag count): GGCTCGGGAT (chemistry not fully specified)
4

Look up AD2 (SAGE tag count): GCCCAGTGGC (chemistry not fully specified)
15

Look up AD2 (SAGE tag count): CCAAAGCTAT (chemistry not fully specified)
12

Look up AD2 (SAGE tag count): GCCCAGGGCC (chemistry not fully specified; the letters are possibly those of the target site)
1

Look up AD2 (SAGE tag count): CGGGAGTCGG (chemistry not fully specified)
2

Look up AD2 (SAGE tag count): GGATGGCTTA (chemistry not fully specified)
1

Look up AD2 (SAGE tag count): AGCAGGAGCA (chemistry not fully specified)
3
